// data source = patent US20090280138A1

Below, each of the binders is paired with its reported t½ half life value.
biological target: T1, MHC class I molecule HLA-A*0201 (iTopia plate-bound monomer) (biotin (bound to streptavidin-coated plate)); assay: iTopia off-rate assay, 37 C; fit R^2 0.87
T1 construct: also called A2
Measured metric: t½ half life (min)

>>> reported_result("QTSYVFLGI (also called Peptide No 177) [5T4 9-mer peptide 177 QTSYVFLGI]")
36
>>> reported_result("ASVSAPSPL (also called Peptide No 84) [5T4 9-mer peptide 84 ASVSAPSPL]")
24
>>> reported_result("QNRSFEGMV (also called Peptide No 96) [5T4 9-mer peptide 96 QNRSFEGMV]")
144
>>> reported_result("LQGLPHIRV (also called Peptide No 141) [5T4 9-mer peptide 141 LQGLPHIRV]")
66
